// data source = patent US10745382B2

Consider the following compounds; for each one, report its IC50.
- tested-on: PD-1/PD-L1 (Homo sapiens, UniProt Q9NZQ7)
- Construct: made in house; host or cells: HEK293T
- Sequence (Q9NZQ7 with tags, fused parts or gaps): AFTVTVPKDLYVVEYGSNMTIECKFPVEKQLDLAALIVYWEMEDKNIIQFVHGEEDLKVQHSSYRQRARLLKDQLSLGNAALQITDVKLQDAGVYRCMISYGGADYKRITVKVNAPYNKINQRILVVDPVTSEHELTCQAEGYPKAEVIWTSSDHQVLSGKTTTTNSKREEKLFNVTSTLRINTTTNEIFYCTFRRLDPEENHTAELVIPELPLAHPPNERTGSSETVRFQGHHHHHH
- run-description: PD-1/PD-L1 Homogenous Time-Resolved Fluorescence (HTRF) binding assay
- conditions-used: PD-L1-His 10 nM, PD-1-Ig 20 nM; value given as range class; read-out: Range or IC50

Quick note, IC50 for Cc1c(COc2cc(OCc3cncc(C#N)c3)c(CN(CCO)CCCO)cc2Cl)cccc1-c1cccc(OCCCN2CCC(F)(F)C2)c1C landed at 0.00021 to 0.01 µM

Quick note, IC50 for CC(=O)NC1CCN(CCCOc2cccc(-c3cccc(COc4cc(OCc5cncc(C#N)c5)c(CN5CCCC[C@H]5C(=O)O)cc4Cl)c3C)c2C)CC1 landed at 0.00021 to 0.01 µM

Quick note, IC50 for Cc1c(COc2cc(OCc3cncc(C#N)c3)c(CN(C)[C@@](C)(CO)C(=O)O)cc2Cl)cccc1-c1cccc(OCCCN2CCC(F)(F)C2)c1C landed at 0.00021 to 0.01 µM

Quick note, IC50 for Cc1c(COc2cc(OCc3cncc(C#N)c3)c(CN3CCCC[C@H]3C(=O)O)cc2Cl)cccc1-c1cccc(C(=O)N(C)C)c1C landed at 0.1 to 2 µM

Quick note, IC50 for Cc1c(OCCCN2CC[C@H](O)C2)cccc1-c1cccc(COc2cc(OCc3cncc(C#N)c3)c(CN3CCCC[C@H]3C(=O)O)cc2Cl)c1Cl landed at 0.00021 to 0.01 µM

Quick note, IC50 for Cc1c(COc2cc(OCc3cncc(C#N)c3)c(CN3CCCC[C@H]3C(=O)O)cc2Cl)cccc1-c1cccc(OCCCN2CCO[C@@H](CO)C2)c1C landed at 0.00021 to 0.01 µM

Quick note, IC50 for CCN(Cc1cc(Cl)c(OCc2cccc(-c3cccc(OCCCN4CC[C@@H](O)C4)c3Cl)c2C)cc1OCc1cncc(C#N)c1)C(CO)CO landed at 0.00021 to 0.01 µM

Quick note, IC50 for Cc1c(COc2cc(OCc3cncc(C#N)c3)c(CN3CCOC[C@H]3C(=O)O)cc2Cl)cccc1-c1cccc(C(=O)N2CCOCC2)c1C landed at 0.1 to 2 µM

Quick note, IC50 for Cc1c(COc2cc(OCc3cncc(C#N)c3)c(CN3CCCC[C@H]3C(=O)O)cc2Cl)cccc1-c1cccc(OCCCN(C)CCc2ccccc2)c1C landed at 0.00021 to 0.01 µM

Quick note, IC50 for Cc1c(COc2cc(OCc3cncc(S(C)(=O)=O)c3)c(CN[C@](C)(CO)C(=O)O)cc2Cl)cccc1-c1cccc(OCCCN2CC[C@@H](C(=O)O)C2)c1C landed at 0.00021 to 0.01 µM

Quick note, IC50 for Cc1c(COc2cc(OCc3cncc(C#N)c3)c(CN[C@](C)(CO)C(=O)O)cc2Cl)cccc1-c1cccc(OCCCN2CCC(O)(C(=O)O)C2)c1C (stereo partly drawn) landed at 0.00021 to 0.01 µM

Quick note, IC50 for Cc1ccc(OCCCN2CC[C@@H](O)C2)c(C)c1-c1cccc(COc2cc(OCc3cncc(C#N)c3)c(CN[C@](C)(CO)C(=O)O)cc2Cl)c1C landed at 0.00021 to 0.01 µM
